Read-out: Peroxisomal acyl-coenzyme A oxidase 1 (ACOX1) gene, ACOX1 (gene 51)
METHOD_NOTES: LTEA_HepaRG_ACOX1: Life Technologies and Expression Analysis (LTEA) Assay for Peroxisomal acyl-coenzyme A oxidase 1 (ACOX1) gene using HepaRG (AID 2283467)
TEST_PARAMETERS: mRNA level, 48 h; actives raise or lower the signal
Activity calls are given as the source filed them. How the source made its calls: active means hit-call score of the fitted dose curve at least 0.9, where 1 is the maximum; inactive means score below 0.9.
Response enum: True for active, False for inactive

C[C@]12C=CC3=C4CCC(=O)C=C4CC[C@H]3[C@@H]1CC[C@@H]2O: False
Nc1ccc([N+](=O)[O-])cc1: False
Cc1ccc(N=C=O)cc1N=C=O: False

Answer briefly: the call reported for "N#CC(Br)(Br)C(N)=O" in this assay. False

Answer briefly: the call reported for "CCCCCOC(=O)c1ccccc1C(=O)OCCCCC" in this assay. False

Answer briefly: the call reported for "Cc1ccc(N)c(N)c1" in this assay. False

----------
Read-out: Glutathione S-transferase M3 (GSTM3), GSTM3 (gene 2947)
METHOD_NOTES: LTEA_HepaRG_GSTM3: Life Technologies and Expression Analysis (LTEA) Assay for Glutathione S-transferase M3 (GSTM3) using HepaRG (AID 2283501)
TEST_PARAMETERS: mRNA level, 48 h; actives raise or lower the signal
The source made the active and inactive calls. How the source made its calls: active means hit-call score of the fitted dose curve at least 0.9, where 1 is the maximum; inactive means score below 0.9.
QUANTITY_NAME: outcome

ClCCOCCCl: inactive
Clc1ccccc1Cl: inactive
Nc1ccc(Cl)cc1N: inactive
[O-][Cl+]O: inactive
C1=Cc2cccc3cccc1c23: inactive
CN(C)[C@@H]1C(=O)C(C(N)=O)=C(O)[C@@]2(O)C(=O)C3=C(O)c4c(O)cccc4[C@@](C)(O)[C@H]3C[C@@H]12: inactive

Field request: outcome | item: "Cn1cc(-c2ccccc2)c(=O)c(-c2cccc(C(F)(F)F)c2)c1" inactive

----------
Read-out: Macrophage colony-stimulating factor (MCSF), CSF1 (gene 1435)
METHOD_NOTES: BSK_CASM3C_MCSF: BioMAP Diversity Plus: CASM3C Assay for Macrophage colony-stimulating factor (MCSF) Biomarker Activity (AID 2283044);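 further: M-CSF protein amount quantified by ELISA after 24 h exposure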
TEST_PARAMETERS: primary human coronary artery smooth muscle cells; actives raise or lower the signal
Calls of active or inactive are those of the source. The calls were made as follows: active = hit-call score of the fitted dose curve at least 0.9, where 1 is the maximum; inactive = score below 0.9.
Response enum: true (1) = active, false (0) = inactive

Brc1ccc(Oc2ccccc2)cc1: false (0)
CO[C@@H]1[C@H](OC(=O)NC(=O)CCl)CC[C@]2(CO2)[C@H]1[C@@]1(C)O[C@@H]1CC=C(C)C: false (0)

Answer briefly: the call reported for "Clc1ccccc1Cl" in this assay. false (0)

Answer briefly: the call reported for "CCC[CH2][Sn]([Cl])([CH2]CCC)[CH2]CCC" in this assay. true (1)

Answer briefly: the call reported for "CCOC(=O)[C@]1(c2ccccc2)Oc2ccccc2[C@@H]1N" in this assay. false (0)

----------
Read-out: TIMP metallopeptidase inhibitor 2 (TIMP2), TIMP2 (gene 7077)
METHOD_NOTES: BSK_KF3CT_TIMP2: BioMAP Diversity Plus: KF3CT Assay for TIMP metallopeptidase inhibitor 2 (TIMP2) Biomarker Activity (AID 2283071)
TEST_PARAMETERS: primary human keratinocytes with fibroblasts; actives raise or lower the signal
Calls of active or inactive are those of the source. How the source made its calls: active means hit-call score of the fitted dose curve at least 0.9, where 1 is the maximum; inactive means score below 0.9.
Response enum: active, inactive

Some solved entries appear below for comparison.
CNC(=O)Oc1cccc2c1OC(C)(C)C2: inactive
CC(C)(C)OOC(=O)c1ccccc1: inactive
CN(C)c1ccc(C(=O)c2ccc(N(C)C)cc2)cc1: inactive

Answer briefly: the call reported for ClC1=C(Cl)C2(Cl)C3C(Cl)C=CC3C1(Cl)C2(Cl)Cl (configuration not stated) in this assay. active

Answer briefly: the call reported for "Clc1ccc(C(c2ccc(Cl)cc2)C(Cl)Cl)cc1" in this assay. active

Answer briefly: the call reported for "CO[C@@H]1[C@H](OC(=O)NC(=O)CCl)CC[C@]2(CO2)[C@H]1[C@@]1(C)O[C@@H]1CC=C(C)C" in this assay. inactive
